- test_description: NCI Yeast Anticancer Drug Screen. Data for the rad50 strain (AID 155);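 further: 0% = growth of vehicle-only cultures of the same strain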
- assay_context: S. cerevisiae rad50 strain growth inhibition; at 50.0 µM; stronger effect = higher value
The panel holds about 79,000 compounds, 15% with a hit somewhere; the sample as a whole holds those more often. Activity calls are given as the source filed them. No stated cut-off is given here; in the data, active means growth inhibition above about 70%; inactive means the rest.
endpoint_label: growth inhibition

1) CC(=O)NNc1ccccc1 = 62.5% (inactive)
2) O=c1[nH]c(O)c(N=Nc2ccc([N+](=O)[O-])cc2[N+](=O)[O-])c(=O)[nH]1 = 14.7% (inactive)
3) Cn1c(=O)n(C2(C)C[Se]C2)c2ccccc21 = -11.5% (inactive)
4) COc1ccc(C(=O)Cc2c(C(=O)c3ccccc3)c3ccccc3n2C(=O)c2ccccc2)cc1 = -2.45% (inactive)
5) O=C1CC2OCC=C3CN4CCC56c7ccccc7N1C5C2C3CC46 (centres undefined) = 9.65% (inactive)
6) CCOC(OCC)c1ccc(N(C)C)cc1.[C-]#[O+].[C-]#[O+].[C-]#[O+].[Cr] = -8.25% (inactive)
7) CC(=O)NC(Cc1ccc(N(CCCl)CCCl)cc1)C(=O)NC(CC(C)C)C(=O)O (centres undefined) = 2.85% (inactive)
8) CCOP(=O)(CSCCC1(C)NC(=O)NC1=O)OCC (centres undefined) = 8.6% (inactive)
9) C=COC(=O)NC(C(=O)O)C(C)CC (centres undefined) = 43.1% (inactive)
10) CCCCCCCCCCCCCCCCCC(=O)NC(CC(=O)OCCCCCC)c1ccc(N(CCCl)CCCl)cc1 (centres undefined) = -2.6% (inactive)
11) CCOc1ccc(N)cc1 = -4.65% (inactive)
12) CCCCCCCCCCCCCCCCOc1ccc(S(=O)(=O)F)cc1C(=O)Nc1ccc(S(=O)(=O)Nc2cccc3ccccc23)cc1 = 3.3% (inactive)
13) Cc1cc(N(C)CCCl)ccc1N=Nc1ccccc1C(=O)O = 36.5% (inactive)
14) COC1C(=[N+]=[N-])C(=O)NC(=O)N1C (centres undefined) = 21% (inactive)
15) CC(C)[N+](C)(CCC(C(=O)N(C)C)(c1ccccc1)c1ccccc1)C(C)C = 18.6% (inactive)
16) CC1(Br)Cc2ccccc2C1=O (centres undefined) = -2.2% (inactive)
17) O=CC(O)C(O)C1[O][Sb][O]C1CO (centres undefined) = 0.75% (inactive)
18) CNC(=O)Oc1ccc(C=Nc2cccc([N+](=O)[O-])c2)cc1 = 2.9% (inactive)
19) CO[C@H]1C[C@H](O[C@H]2CC[C@]3(C=O)[C@H]4CC[C@]5(C)[C@@H](C6=CC(=O)OC6)CC[C@]5(O)[C@@H]4CC[C@]3(O)C2)O[C@H](C)[C@H]1O[C@@H]1O[C@H](CO)[C@@H](O)[C@H](O)[C@H]1O = 18.4% (inactive)

* * *

- test_description: NCI Yeast Anticancer Drug Screen. Data for the mec2-1 strain (AID 157)
- assay_context: S. cerevisiae mec2-1 strain, at 5.0 µM (retest, dose inferred, filed as 0.5)
About 79,000 compounds went through this panel and 15% of them were active in at least one assay; those are over-represented in the sample as a whole. Active and inactive are the calls of the source. Rule as the data show it: active = growth inhibition above about 70%; inactive = the rest.
Outcomes: active, inactive

1) COC(=O)C1=C(C(=O)OC)C2(C)OC1c1ccccc12 (centres undefined) = inactive
2) COC(=O)c1ccc([As]=O)cc1N (centres undefined) = inactive
3) Cc1nnc2n1-c1ccc(Cl)cc1C(c1ccccc1)=[N+]([O-])C2 = inactive
4) O=C(CBr)NC1CCCCC1 = inactive
5) CCOP(=S)(OCC)SCc1c(C)c(C)c(CSP(=S)(OCC)OCC)c(C)c1C = inactive
6) c1ccc(N=c2snc(-c3ccccc3)s2)cc1 = inactive
7) CCOP(=O)(N=Nc1cccnc1)OCC = inactive
8) CCCCCCCCCCCCCCCC[N+](C)(C)CCOS(C)(=O)=O = active
9) O=C1OCC2CC3C4C=CC(C4)C3C12 (centres undefined) = inactive
10) O=[N+]([O-])/C=C/c1c(Cl)cccc1Cl = active
11) O=C(CCCc1ccccc1)[O][Hg][c]1ccccc1 = active
12) CC(C)CCC1(CCSC(=O)S)C(=O)NC(=O)NC1=O = inactive
13) CC(=N\O)/C(C)=N/O.CC(=N\O)/C(C)=N/O.CC(=N\O)/C(C)=N/O.CC(=N\O)/C(C)=N/O.[CH3-].[CH3-].[Co].[Co] = inactive
14) ClCCN(Cc1ccccc1)CC1COc2ccccc2O1 (centres undefined) = inactive
15) CCC[CH2][Sn]1([CH2]CCC)[O]CC(Cc2ccccc2)[O]1 (centres undefined) = inactive
16) Cc1cc(N(CCCl)CCCl)ccc1C1N(Cc2ccc(N(CCCl)CCCl)cc2Cl)CCCN1Cc1ccc(N(CCCl)CCCl)cc1Cl = active
17) [C-]#[O+].[C-]#[O+].[C-]#[O+].[C-]#[O+].[Mo].c1cnc2c(c1)ccc1cccnc12 = inactive
18) CC(=O)OCC1(N2CCCC2)CCCCC1 = inactive
19) Cc1cc(C)c(C[N+](C)(C)C)c(C)c1C = inactive
20) COc1cc(/C=C(\C)[N+](=O)[O-])cc(Br)c1O = inactive
21) COc1ccc(O)c(/C=C/[N+](=O)[O-])c1 = inactive
22) CC(=O)[O][Hg][c]1c(C)c(C)cc(C)c1C = active
23) CCC1CN1P(=O)(Oc1ccccc1)N1CC1CC (centres undefined) = inactive
24) O=C(O)c1ccccc1.[Zn+2] = inactive
25) C1CC[N-]CC1.C1CC[N-]CC1.N#C[S-].N#C[S-].[Cd] = inactive
26) S=c1sc(-c2ccccc2)c[se]1 = inactive
27) N#Cc1cc([N+](=O)[O-])c(Cl)c([N+](=O)[O-])c1 = inactive
28) C#CC[As+](c1ccccc1)(c1ccccc1)c1ccccc1 = inactive
29) CCOC(=O)c1[nH]cnc1/N=N/N(C)N = active
30) [Cl][Sn]([CH2]c1ccccc1)([CH2]c1ccccc1)[CH2]c1ccccc1 = active
31) C[CH2][Sn]1([CH2]C)[O]S(=O)(=O)[O]1 = inactive
32) CC1=C[C@H]2O[C@H]3C[C@H]4OC(=O)/C=C\C=C\C(=O)OCC[C@@H](C)[C@H](O)C(=O)OC[C@@]2(CC1)[C@@]4(C)[C@]31CO1 = active
33) N#CS.[Ag] = inactive
34) O=[N+]([O-])/C=C/c1ccccc1Cl = active

* * *

- test_description: NCI Yeast Anticancer Drug Screen. Data for the mlh1 rad18 strain (AID 175)
- assay_context: S. cerevisiae mlh1 rad18 strain growth inhibition; at 50.0 µM; stronger effect = higher value
Compounds without any hit were thinned out: in the full panel of roughly 79,000, 15% have a hit.
endpoint_label: growth inhibition (%)

1) CCC[CH2][Pb]([CH2]CCC)([CH2]CCC)[O]C(C)=O = 13.3
2) CN(C)C(=O)Sc1c(Cl)cc(S(=O)(=O)F)cc1[N+](=O)[O-] = 20.6
3) CCCCCCNCCc1cnc[nH]1 = -68.7
4) CSc1sc2ccccc2[s+]1 = 3.35
5) O=C([O-])CC(=O)[O-].[Cu+2].[OH3+].[OH3+] = 6.1
6) [N-]=[N+]=NP1(=O)OC(c2ccccc2)=CCN1c1ccccc1 (stereo unspecified) = -4.1

* * *

- test_description: NCI Yeast Anticancer Drug Screen. Data for the mec2-1 strain (AID 157)
- assay_context: S. cerevisiae mec2-1 strain, at 5.0 µM (retest, dose inferred, filed as 0.5)
Compounds without any hit were thinned out: in the full panel of roughly 79,000, 15% have a hit. Calls of active or inactive are those of the source. Cut-off read from the data, not from the text of the source: active = growth inhibition above about 70%; inactive = the rest.
Outcomes: 1 (active), -1 (inactive)

1) C[N+](C)(C)CC1CCCC(C[N+](C)(C)C)C1O (centres undefined) = -1
2) [Au+].[Au+].[Au+].[c-]1nccn1Cc1ccccc1.[c-]1nccn1Cc1ccccc1.[c-]1nccn1Cc1ccccc1 = -1
3) C/C(=N/NC(N)=S)c1ccc(Cl)cc1 = -1
4) CC1(C)N=C(N)N=C(N)N1c1ccc(OCC(=O)Nc2cccc(S(=O)(=O)F)c2)c(Cl)c1 = -1
5) Cl[C](Cl)(Cl)[Hg][C](Cl)(Cl)Cl = 1
6) COC1=C(Cl)C(=O)c2ccccc2C1=O = -1
7) O=[N+]([O-])/C=C\c1ccc2c(c1)OCO2 = 1
8) CC(Br)C(=O)C(CCN(C)C)(c1ccccc1)c1ccc(Br)s1 (centres undefined) = -1
9) NC(=S)C1=C(N)Oc2c(c(=O)oc3ccccc23)C1c1ccc(Br)cc1 (centres undefined) = -1

* * *

- test_description: NCI Yeast Anticancer Drug Screen. Data for the mlh1 rad18 strain (AID 175)
- assay_context: S. cerevisiae mlh1 rad18 strain growth inhibition; at 50.0 µM (retest, dose inferred, filed as 5.0); stronger effect = higher value
The panel holds about 79,000 compounds, 15% with a hit somewhere; the sample as a whole holds those more often.
# reported growth inhibition; entries follow
endpoint_label: growth inhibition (%)

1) O=C(N/N=C/c1cc(Br)cc(Br)c1[O-])c1ccccc1O.O=C(N/N=C/c1cc(Br)cc(Br)c1[O-])c1ccccc1O.[Mn+2] = 94
2) N#CC(Cl)(Cl)CCl = 38
3) C=C1C(=O)O[C@@H]2C[C@@H](C)[C@@H]3C=CC(=O)[C@@]3(C)[C@@H](O)[C@H]12 = 27
4) Oc1c(Cl)cc(Cl)c2ccccc12.[Cu+2] = 93
5) COC(=O)C1=C(C(=O)OC)C2(C)OC1c1ccccc12 (stereo not given) = 95

Just for reference, PubChem BioAssay (NCI) is where these values come from.
